- Protocol text: Cytotoxicity, XTT method, MT-2 cells
- Type: cell-based, human
- Setup conditions: human, read-out: CC50 (μM) ± SD, cytotoxicity in MT-2 cells
Bridge positions count the residues as written; N and C are the ends. Square brackets hold non-standard residues; d marks the D form. Peptide text beside a SMILES is read from it. S5 = C=CCCC[C@](C)(N)C(=O)O
Readout: CC50 at 4 days (µM)
Write the value in µM as a bare number.

1. CSCC[C@H](NC(=O)[C@H](Cc1c[nH]c2ccccc12)NC(=O)[C@H](CC(N)=O)NC(=O)[C@H](CCCCN)NC(=O)[C@@H](NC(=O)[C@H](C)NC(=O)[C@H](CCC(N)=O)NC(=O)[C@H](C)N)C(C)C)C(=O)N[C@H](C(=O)N[C@@]1(C)CCCC=CCCC[C@@](C)(C(=O)N[C@@H](C)C(N)=O)NC(=O)[C@H](CC(C)C)NC(=O)[C@H](CC(C)C)NC(=O)[C@H]([C@@H](C)O)NC1=O)[C@@H](C)O [NYAD-218, AQAVKNWMTXTLLXA] (H-AQAVKNWMT[S5]TLL[S5]A-NH2; staple 10-14)
67.3

We next turn to a different molecule, shown below.
Qu. GET /values?readout=CC50 at 4 days&item= CSCC[C@@H]1NC(=O)[C@H](Cc2c[nH]c3ccccc23)NC(=O)[C@@](C)(NC(=O)[C@H](CCCCN)NC(=O)[C@@H](NC(=O)[C@H](C)NC(=O)[C@H](CCC(N)=O)NC(=O)[C@H](C)N)C(C)C)CCCC=CCCC[C@@](C)(C(=O)N[C@H](C(=O)N[C@@H](CC(C)C)C(=O)N[C@@H](CC(C)C)C(=O)N[C@H](C(=O)N[C@@H](C)C(N)=O)C(C)C)[C@@H](C)O)NC(=O)[C@H]([C@@H](C)O)NC1=O [NYAD-202, AQAVKXWMTXTLLVA] (H-AQAVK[S5]WMT[S5]TLLVA-NH2; staple 6-10)
Ans. 30.2

---

- Protocol text: Cytotoxicity, XTT method, MT-2 cells
- Assay type: cell-based, human
- Setup conditions: human, read-out: CC50 (μM) ± SD, cytotoxicity in MT-2 cells
Bridge positions count the residues as written; N and C are the ends. Square brackets hold non-standard residues; d marks the D form. Peptide text beside a SMILES is read from it. S5 = C=CCCC[C@](C)(N)C(=O)O
Readout: CC50 at 4 days

Qu. GET /values?readout=CC50 at 4 days&item= CC(C)C[C@H](NC(=O)[C@H](CC(C)C)NC(=O)[C@@H](NC(=O)[C@]1(C)CCCC=CCCC[C@](C)(NC(=O)[C@H](CCCCN)NC(=O)[C@H](Cc2c[nH]c3ccccc23)NC(=O)[C@H](C)NC(=O)[C@H](CCC(N)=O)NC(=O)[C@H](C)N)C(=O)N[C@@H](Cc2c[nH]c3ccccc23)C(=O)N[C@@H](C)C(=O)N[C@@H]([C@@H](C)O)C(=O)N1)[C@@H](C)O)C(=O)N[C@H](C(=O)N[C@@H](C)C(=O)N[C@@H](CCC(=O)O)C(N)=O)C(C)C [NYAD-219, AQAWKXWATXTLLVAE] (H-AQAWK[S5]WAT[S5]TLLVAE-NH2; staple 6-10)
Ans. > 106 µM
